Each recorded value in this set is attributed to paper PMC5540273.

Form field: %Inh (one value per entry).
Tested on: NIK;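 further: KINOMEscan kinase panel screen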
Construct: gene MAP3K14
experimental-context: concentration: 1 μM, replicates: in singlicate; n = 1

compound | measurement-target | %Inh
COc1cccc(-c2cc(-c3c[nH]nc3-c3ccccn3)ccn2)c1 | NIK | 19%
COc1ccc(Nc2nccc(NCCNC(=O)Nc3ccccc3F)n2)cc1 | NIK | 9%
Cc1cccc(-c2cc(Nc3ccncc3)c3ccccc3n2)n1 | NIK | 14%
Cc1nnc(-c2ccc3occ(-c4ccc(S(C)=O)cc4)c3c2)[nH]1 (stereo not shown) | NIK | 0%
Fc1cc(Cl)ccc1Nc1ccnc2cc(-c3ccc(CN4CCCCC4)o3)ccc12 | NIK | 10%
CS(=O)(=O)c1ccc(-c2c(-c3ncn[nH]3)sc(N3CCOCC3)c2C#N)cc1 | NIK | 0%
COc1cc2ncnc(Nc3ccc4nc(-c5ccccc5)[nH]c4c3)c2cc1OC.Cl | NIK | 23%
COc1cc2ncn(-c3cc(OCC4CCCO4)c(C(N)=O)s3)c2cc1OC (stereo not shown) | NIK | 19%
O=C(Nc1ccc2c(c1)OCO2)NC1CCN(c2ccnc(Nc3ccc(F)cc3)n2)C1 (stereo not shown) | NIK | 0%
COc1cccc(NC(=O)NC2CCN(c3ccnc(Nc4ccc(F)cc4)n3)C2)c1 (stereo not shown) | NIK | 2%
O=c1cc(N2CCOCC2)nc2n(Cc3cccc(Cl)c3Cl)ccn12 | NIK | 32%
COc1ccccc1-c1ccc2c(NC(=O)C3CC3)n[nH]c2n1 | NIK | 0%
NC(=O)c1nnc2ccccc2c1N | NIK | 69%
COc1ccc2nc(-c3cccc(C)n3)nc(Nc3ccncc3)c2c1 | NIK | 0%
Cc1c(Cn2ccn3c(=O)cc(N4CCOCC4)nc23)cccc1C(F)(F)F | NIK | 0%
CC1=C(C(=O)Nc2cc3cn[nH]c3cc2F)C(c2ccc(C(F)(F)F)cc2)CC(=O)N1 (stereo not shown) | NIK | 27%
Cc1cc(N2Cc3ccccc3C2)nc(Nc2ccc(S(=O)(=O)N3CCOCC3)cc2)n1.Cl | NIK | 0%
Cn1cncc1-c1ccc2ncnc(Nc3ccc(OCc4ccccc4)cc3)c2c1 | NIK | 0%
COc1ccccc1CNC(=O)c1cc(C(=O)c2ccccc2C)c[nH]1 | NIK | 12%
